Hey, just so you know, these numbers are from patent US9688676B2.

Here, each record is paired with measured pIC50 data.
# System under test: BTK (Homo sapiens (Human))
# Protocol: BTK enzymatic activity assay (Caliper-based kinase assay)
# Assay context: human recombinant BTK 0.5 nM, ATP 16 μM, 3 h room temperature
pIC50: −log10 of the molar value.
Readout label: pIC50

| Compound | Readout label | Reported value |
| --- | --- | --- |
| CC1(C=C(C#N)C(=O)N2CCC[C@@H](n3c(=O)n(-c4ccc(Oc5ccccc5)cc4)c4c(N)nccc43)C2)CCC1 [Compound 3] | pIC50 | 7.67 |
| COC(=O)N1CCN(C(C)(C)C=C(C#N)C(=O)N2CCC[C@H]2Cn2c(=O)n(-c3ccc(Oc4ccccc4)cc3)c3c(N)nccc32)CC1 [Compound 15] | pIC50 | 7.14 |
| CN1CCN(C(C)(C)C=C(C#N)C(=O)N2CCC[C@H]2Cn2c(=O)n(-c3ccc(Oc4ccccc4)cc3)c3c(N)nccc32)CC1=O [Compound 35] | pIC50 | 7.58 |

====

# System under test: BTK (Homo sapiens (Human), UniProt Q06187)
# Sequence (Q06187 whole entry): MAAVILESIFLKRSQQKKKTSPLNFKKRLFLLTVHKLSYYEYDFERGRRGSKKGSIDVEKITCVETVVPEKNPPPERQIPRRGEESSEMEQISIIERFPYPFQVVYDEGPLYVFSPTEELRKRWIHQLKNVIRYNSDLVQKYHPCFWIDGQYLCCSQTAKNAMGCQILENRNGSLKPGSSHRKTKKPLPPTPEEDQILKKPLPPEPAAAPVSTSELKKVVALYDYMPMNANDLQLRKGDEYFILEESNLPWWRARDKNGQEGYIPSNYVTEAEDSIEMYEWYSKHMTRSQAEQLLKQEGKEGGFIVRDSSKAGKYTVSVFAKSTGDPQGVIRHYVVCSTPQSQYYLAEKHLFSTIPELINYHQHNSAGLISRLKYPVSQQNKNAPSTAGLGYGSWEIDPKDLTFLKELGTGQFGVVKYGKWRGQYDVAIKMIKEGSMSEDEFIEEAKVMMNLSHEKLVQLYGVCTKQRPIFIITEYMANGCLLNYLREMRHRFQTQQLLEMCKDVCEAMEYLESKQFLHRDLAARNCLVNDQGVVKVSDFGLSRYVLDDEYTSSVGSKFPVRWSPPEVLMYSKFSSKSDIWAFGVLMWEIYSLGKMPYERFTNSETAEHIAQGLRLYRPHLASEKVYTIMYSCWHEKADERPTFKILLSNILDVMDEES
# Protocol: Determination of drug-kinase residence time (TR-FRET tracer competition, occupancy after washout)
# Type: binding
# Assay context: 6 h of washout; 1.5 μM compound, 500 nM BTK
Listed compounds paired with reported % occupany at 6 h

| Smiles structure | System under test | Quantity unit | % occupany at 6 h |
| --- | --- | --- | --- |
| CN1CCC(C(C)(C)C=C(C#N)C(=O)N2CCC[C@@H](n3c(=O)n(-c4ccc(Oc5ccccc5)cc4)c4c(N)nccc43)C2)CC1 | BTK (Homo sapiens (Human), UniProt Q06187) | % | −1.3946 |
| CC(C)(C=C(C#N)C(=O)N1CCC[C@@H](n2c(=O)n(-c3ccc(Oc4ccccc4)cc3)c3c(N)nccc32)C1)N1CCN(CC(F)(F)F)CC1 | BTK (Homo sapiens (Human), UniProt Q06187) | % | 86.64 |
| CC#CC(=O)N1CCC[C@@H](n2c(=O)n(-c3ccc(Oc4ccccc4)cc3)c3c(N)nccc32)C1 | BTK (Homo sapiens (Human), UniProt Q06187) | % | 78.623 |
| CC(C)(C)C=C(C#N)C(=O)N1CCC[C@@H](n2c(=O)n(-c3ccc(Oc4ccccc4)cc3)c3c(N)nccc32)C1 | BTK (Homo sapiens (Human), UniProt Q06187) | % | 82.199 |
| COC(=O)N1CCN(C(C)(C)C=C(C#N)C(=O)N2CCC[C@@H](n3c(=O)n(-c4ccc(Oc5ccccc5)cc4)c4c(N)nccc43)C2)CC1 | BTK (Homo sapiens (Human), UniProt Q06187) | % | 77.985 |
| CC(C)(C=C(C#N)C(=O)N1CCC[C@@H](n2c(=O)n(-c3ccc(Oc4ccccc4)cc3)c3c(N)nccc32)C1)N1CCN(C2COC2)CC1 | BTK (Homo sapiens (Human), UniProt Q06187) | % | 83.103 |

====

Known pIC50 of a selection of compounds
# System under test: BTK (Homo sapiens (Human), UniProt Q06187)
# Protocol: BTK enzymatic activity assay (Caliper-based kinase assay)
# Assay context: human recombinant BTK 0.5 nM, ATP 16 μM, 3 h room temperature
pIC50: −log10 of the molar value.

| Compound | System under test | pIC50 |
| --- | --- | --- |
| CN1CCN(C(C)(C)C=C(C#N)C(=O)N2CCC[C@H]2Cn2c(=O)n(-c3ccc(Oc4ccccc4)cc3)c3c(N)nccc32)CC1 | BTK (Homo sapiens (Human), UniProt Q06187) | 7.64 |
| CC(C)(C=C(C#N)C(=O)N1CCC[C@@H](n2c(=O)n(-c3ccc(Oc4ccccc4)cc3)c3c(N)nccc32)C1)N1CCOCC1 | BTK (Homo sapiens (Human), UniProt Q06187) | 8.11 |
| N#CC(=CC1[C@H]2COC[C@@H]12)C(=O)N1CCC[C@@H](n2c(=O)n(-c3ccc(Oc4ccccc4)cc3)c3c(N)nccc32)C1 (stereo partly drawn) | BTK (Homo sapiens (Human), UniProt Q06187) | 8.38 |
